Where do these numbers come from? They come from ChEMBL document CHEMBL1201862.

# Tested on: NCI-H23
# assay.name: NCI tumour cell line growth inhibition, 48 h
Activity calls are given as the source filed them. Rule as the data show it: active = GI50 up to about 1.1 µM and inactive = higher.
Classes used: active, inactive

INSERT INTO measurements (compound, classification) VALUES
  ('O=C(CCSC1=NCCCN1)c1ccc(F)cc1', 'inactive'),
  ('c1ccc(SC(CCCCC(Sc2ccccc2)Sc2ccccc2)Sc2ccccc2)cc1', 'inactive'),
  ('COC(=O)/C=C1\CCCN1CCc1cc2c(cc1CC#N)OCO2', 'inactive'),
  ('O=C1/C(=C\c2ccccc2)c2ccccc2N1/N=C\c1ccccc1', 'inactive'),
  ('COc1ccc2c(c1)CCC(OS(=O)(=O)CC13CCC(CC1=O)C3(C)C)C2=O (stereo not drawn)', 'inactive'),
  ('O=[N+]([O-])c1cccc2nc3ccccc3c(NCCO)c12', 'active'),
  ('CC1(C)COC(C23C4C5C2C2C3C4C52I)=N1 (stereo not drawn)', 'inactive'),
  ('CCOP(=O)(OCC)/C(C#N)=C/c1nccn1C', 'inactive'),
  ('CC1OC(OC2C(OC3CCC4(C)C(CCC5(C)C4CC=C4C6CC(C)(C)CCC6(C(=O)O)CCC45C)C3(C)CO)OCC(O)C2O)C(O)C(O)C1O (stereo not drawn)', 'inactive'),
  ('CCCc1nc(Cl)nc(Cl)c1Cl', 'active'),
  ('O=C(C(O)c1cn(Cc2ccccc2)c2ccccc12)N1CCCCC1 (stereo not drawn)', 'inactive'),
  ('[O-][n+]1c2cc(CBr)c(CBr)cc2[n+]([O-])c2c(O)cccc21', 'inactive'),
  ('N#Cc1ccc2cc3c(cc2c1)OCO3', 'inactive'),
  ('NC(=O)C(N)Cc1ccc(O)cn1 (stereo not drawn)', 'inactive'),
  ('CN1CCC23c4ccccc4NC1C21CCN(C)C3Nc2ccccc21', 'inactive'),
  ('CC(C)OP(=O)(OC(C)C)c1c(N)n[nH]c1Nc1ccccc1', 'inactive'),
  ('CN1C(=O)C2(C=CC(O)CC2)c2ccccc21 (stereo not drawn)', 'inactive'),
  ('O=S(=O)(c1ccccc1)C1CN(Cc2ccccc2)CCN(Cc2ccccc2)C1', 'inactive'),
  ('O=C(Cc1ccccc1)NNc1nc(NNC(=O)c2ccncc2)nc(Nc2ccc([N+](=O)[O-])cc2)n1', 'inactive'),
  ('COc1ccc(-c2nc(O)c3ccccc3n2)cc1OC', 'inactive'),
  ('COc1ccc2c(c1)C1C(CO2)C(c2ccccc2)=NN1c1ccccc1 (stereo not drawn)', 'inactive'),
  ('CCOC(=O)C1=C(OC(OCC)C(C)[Se]c2ccccc2)CCC1 (stereo not drawn)', 'inactive'),
  ('Cc1ccc(C(=O)C(C)N)cc1C (stereo not drawn)', 'inactive'),
  ('C[C@]12C=CC(=O)C=C1CC[C@@H]1[C@@H]2CC[C@@]2(C)[C@H]1CC[C@]2(O)C(N)=O', 'inactive'),
  ('COc1ccc(NC(=O)CC(=O)n2nc(-c3ccccc3)c(/N=N/c3ccc(C)cc3)c2-c2ccccc2)cc1', 'inactive'),
  ('Oc1ccc(C(O)(c2ccccc2)c2ccccc2)c2ccccc12', 'inactive'),
  ('O=C1C=C(Nc2ccc(S(=O)(=O)Nc3ncccn3)cc2)c2ccccc2C1=O', 'inactive'),
  ('Clc1ccc(CSC2=NCCN2)cc1Cl', 'inactive'),
  ('Oc1ccccc1C(Sc1nc2ccccc2s1)Sc1nc2ccccc2s1', 'inactive'),
  ('COc1cc(C2c3[nH]c4ccccc4c3C[C@H]3COC(=O)N23)cc(OC)c1OC (stereo partly drawn)', 'active'),
  ('C(#C[C@@]12CCC[C@@H]1NCO2)c1ccc2c(c1)OCO2', 'inactive'),
  ('CC1CCC(=O)C(C(=O)CC2CC(=O)NC(=O)C2)C1 (stereo not drawn)', 'inactive'),
  ('CCOC(=O)C(NC(=O)CC)(Nc1ccccc1F)C(F)(F)F (stereo not drawn)', 'inactive'),
  ('CC1(C(=O)O)CCC[C@@]2(C)C1CC[C@@]1(C)c3cocc3CCC21 (stereo partly drawn)', 'inactive'),
  ('Cc1ccc([N+](=O)[O-])cc1S(=O)(=O)Nc1ccc(C2=NN(S(=O)(=O)c3cc([N+](=O)[O-])ccc3C)C(c3ccccc3O)C2)cc1 (stereo not drawn)', 'inactive'),
  ('COc1ccccc1NC(=O)C1=C(C)NC(C)=C(C(=O)Nc2ccccc2OC)C1c1ccc(N(C)C)cc1', 'inactive'),
  ('Cc1cc2nc3c(N)nn(CCCN(C)C)c3nc2cc1C', 'inactive'),
  ('COc1cc(/C=C2/C[C@H]3[C@@H]4CC=C5C[C@@H](O)CC[C@]5(C)[C@H]4CC[C@]3(C)NC2=O)cc(OC)c1OC', 'inactive'),
  ('O=[N+]([O-])c1ccc(C2CC(c3ccccc3Cl)=Nc3ccccc3S2)cc1 (stereo not drawn)', 'inactive'),
  ('C/C1=N\[N-]C(=O)c2ccccc2C(=O)N/N=C(\C)c2cccc1n2.O=[N+]([O-])[O-].[Zn+2]', 'inactive'),
  ('O=C(O)CC(Nc1ccccc1)C(=O)O (stereo not drawn)', 'inactive'),
  ('N#CC(C(=O)/C(=N/NC(=O)c1ccccc1O)C(C#N)c1ccc(Cl)cc1)c1ccc(Cl)cc1 (stereo not drawn)', 'inactive'),
  ('N#CC(=C1CCCCC1)c1nc2ccccc2o1', 'inactive');
